Assay: recombinant barcode read abundance after kanamycin selection (control-corrected) (log10(CPM+1)); higher = more efficient recombination; sequences stand for … in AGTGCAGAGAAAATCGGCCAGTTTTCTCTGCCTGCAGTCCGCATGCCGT…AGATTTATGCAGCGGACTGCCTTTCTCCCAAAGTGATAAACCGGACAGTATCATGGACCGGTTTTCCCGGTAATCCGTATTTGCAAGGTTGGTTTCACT; site = the 11-nt target
Threshold check on recombinant barcode read abundance (log10): at or above 0.06 gives T, strictly below gives F.

Q: Textbook exercise: given the entry GTCATGTCTTGGGTTCTAACCTGTTGCTG (site ACAGGTCCTTC) , state whether its recombinant barcode read abundance (log10) is greater than or equal to 0.06.
A: F

Q: Textbook exercise: given the entry CCTCATACTTGGGTTCTAACCTGTTGCCA (site GGAGTACCTAT) , state whether its recombinant barcode read abundance (log10) is greater than or equal to 0.06.
A: F

Q: Does recombinant barcode read abundance (log10) meet or surpass 0.06 for GTCCTAACTTGGGTTCTAACCTGTTGCAC (site GTCCTACCTTT) ?
A: T

Q: Reported recombinant barcode read abundance (log10) reaches at least 0.06 for AAGACAACTTGGGTTCTAACCTGTTGCGG (site AAGACAACTCC) ?
A: T

---

Assay: recombinant UMI read abundance after kanamycin selection (control-corrected) (log10(CPM+1)); higher = more efficient recombination; extreme values may be limits of the assay; sequences stand for … in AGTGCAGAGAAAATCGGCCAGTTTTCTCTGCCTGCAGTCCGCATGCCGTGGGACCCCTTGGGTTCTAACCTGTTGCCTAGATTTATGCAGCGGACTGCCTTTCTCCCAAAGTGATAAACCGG…AGGTTGGTTTCACT; site = the 11-nt donor
measured_property: recombinant UMI read abundance (log10)
A bare number is all that is needed in reply.

Below, each entry is followed by its recorded recombinant UMI read abundance (log10) result.
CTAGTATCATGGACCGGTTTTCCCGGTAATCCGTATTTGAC (site CTAGTCTCTGT) = 1.18
CCTAGTACATGGACCGGTTTTCCCGGTAATCCGTATTTGGC (site CCTACTACTGC) = 0
CACTTGACATGGACCGGTTTTCCCGGTAATCCGTATTTGGA (site CACTTGCCTTC) = 0.0198

Just so you know, measured recombinant UMI read abundance (log10) for CTGGTTACATGGACCGGTTTTCCCGGTAATCCGTATTTGGC (site CTGGTTACTGC) came out at 1.74

Recorded result, AGCCCTTCATGGACCGGTTTTCCCGGTAATCCGTATTTGAC (site AGCCCTTCTGT) , recombinant UMI read abundance (log10): 2.11

Short answer for CTCTTCACATGGACCGGTTTTCCCGGTAATCCGTATTTGCT (site CTCTCCACTAG) : recombinant UMI read abundance (log10) was 1.14

Lab book: recombinant UMI read abundance (log10) of GTATGTACATGGACCGGTTTTCCCGGTAATCCGTATTTGAC (site GTAGGTACTGT) noted as 0.95

Please fill in: recombinant UMI read abundance (log10) reported for CGGGTGTCATGGACCGGTTTTCCCGGTAATCCGTATTTGCC (site CGGGGGTCTGG) = 0

Recorded result, ATTAAGTCATGGACCGGTTTTCCCGGTAATCCGTATTTGTA (site ATTAAGTCTTA) , recombinant UMI read abundance (log10): 2.58
